# protein stability index values compiled below
# Run description: protein stability index of a GFP-peptide fusion (yeast GPS) (PSI 1-4); higher = more stable; sorted into four equal gates, so the index is relative within each strain
# Condition parameters: doa10∆
Measurement label: protein stability index

In [3]: df
Out[3]:
                 construct_sequence        measurement_label  numeric_readout
0  VIITDGTLLREDDNTPA [YDL088C/ASM4]  protein stability index             2.94
1          YRLDIIESALKSKLDQD [RPN2]  protein stability index             1.66
2          SEKQNDEEAAGASTVMK [PRP8]  protein stability index             3.36
3         TLHLVLRLRGGGKKRKK [RPS31]  protein stability index             2.34
4          LQWHAMIELICSSATVP [AAR2]  protein stability index             1.55
5          GSNQKPKYEPPVQSKFG [RPT2]  protein stability index             2.94
6          NTEEVNRLEKEQSVKTQ [LIN1]  protein stability index             2.21

These measurements were taken from the supplement of paper PMC9732359.
